Assay: NCI Yeast Anticancer Drug Screen. Data for the CLN2oe strain (AID 163)
Conditions: S. cerevisiae CLN2oe strain, at 100.0 µM
The panel holds about 79,000 compounds, 15% with a hit somewhere; the sample as a whole holds those more often. Activity calls are given as the source filed them. No stated cut-off is given here; in the data, active means growth inhibition above about 70%; inactive means the rest.
Allowed answers: active, inactive

Previously resolved entries follow.
compound	group
CC(=O)Oc1ccc2c(c1)Cc1cc(N=C3C=CC(=O)O3)ccc1-2	active
O=C1c2ccccc2C(=O)c2cc(CBr)ccc21	inactive
CC1CCN(CCC(=O)c2ccc(Cl)cc2)CC1	inactive

QUERY: GET /call?item= [O-][n+]1c2ccc(O)cc2nc2ccc(Br)cc21 returns the recorded outcome of this test.
RESULT: inactive

QUERY: GET /call?item= Cc1ccc(N)c(S)c1 returns the recorded outcome of this test.
RESULT: active

QUERY: GET /call?item= CC(/C=C/c1ccc(Cl)cc1)=N\NC(=S)NCC(C)C returns the recorded outcome of this test.
RESULT: inactive

QUERY: GET /call?item= Nc1ccc2c(c1)C(=O)c1cccc(N)c1C2=O returns the recorded outcome of this test.
RESULT: inactive
